Here the recorded Dmax is given for each entry.
TESTED_SYSTEM: SMARCA2 (Homo sapiens)
ASSAY_METHOD_TEXT: SMARCA2 Western blot degradation in MV4-11 cells
Format: cell-based
Set-up: SMARCA2/SMARCA4 protein degradation selectivity in MV4-11 cells; endogenous in cells; host or cells: MV4-11
CONDITION_LABEL: MV4-11, MV4-11 cells, 24 h; read-out: SMARCA2 MSD MV411 degradation 24 h: average Dmax %

Input line: # input compound: C#Cc1ccc(CNC(=O)[C@@H]2C[C@@H](O)CN2C(=O)[C@@H](NC(=O)[C@H]2CCC3(CC2)C[C@H](N2CCC(c4cnc(N5CCN6c7cc(-c8ccccc8O)nnc7NC[C@H]6C5)nc4)CC2)C3)C(C)(C)CCO)cc1 (single isomer, unassigned) ; wanted: its Dmax
Output line: > 90%

Input line: # input compound: C#Cc1ccc(CNC(=O)[C@@H]2C[C@@H](O)CN2C(=O)[C@H](NC(=O)N2CC3(CC(N4CCC(c5cnc(N6CCc7[nH]c8nnc(-c9ccccc9O)cc8c7[C@H]6C)nc5)CC4)C3)C2)C(C)(C)CCN2CCN[C@@H](C(=O)O)C2)cc1 ; wanted: its Dmax
Output line: < 50%

Input line: # input compound: Cc1ncsc1-c1ccc(CNC(=O)[C@@H]2C[C@@H](O)CN2C(=O)C(c2cc(OCCCCN3CCC(c4cnc(N5CCN6c7cc(-c8ccccc8O)nnc7NC[C@H]6C5)nc4)CC3)no2)C(C)C)cc1 (stereo partly drawn) ; wanted: its Dmax
Output line: > 90%

Input line: # input compound: Cc1ncsc1-c1ccc(CNC(=O)[C@@H]2C[C@@H](O)CN2C(=O)C(c2cc(N3CCC(CCN4CCC(c5cnc(N6CCc7[nH]c8nnc(-c9ccccc9O)cc8c7[C@H]6C)nc5)CC4)CC3)no2)C(C)C)cc1 (stereo partly drawn) ; wanted: its Dmax
Output line: > 90%

Input line: # input compound: C#Cc1ccc2c(c1)OCC[C@@H]2NC(=O)[C@@H]1C[C@@H](O)CN1C(=O)[C@@H](NC(=O)N1CC2(CC(N3CCC(c4cnc(N5CCc6[nH]c7nnc(-c8ccccc8O)cc7c6[C@H]5C)nc4)CC3)C2)C1)C(C)(C)C (single isomer, unassigned) ; wanted: its Dmax
Output line: < 50%

Input line: # input compound: Cc1ncsc1-c1ccc(CNC(=O)[C@@H]2C[C@@H](O)CN2C(=O)[C@@H](NC(=O)[C@H]2CC3(C2)C[C@H](N2CCC(N4CCC(c5ccc6[nH]c7nnc(-c8ccccc8O)cc7c6c5)CC4)CC2)C3)C(C)(C)C)cc1 (single isomer, unassigned) ; wanted: its Dmax
Output line: 50 to 70%

====

TESTED_SYSTEM: SMARCA2 (Homo sapiens, UniProt P51531)
Sequence (P51531 whole entry): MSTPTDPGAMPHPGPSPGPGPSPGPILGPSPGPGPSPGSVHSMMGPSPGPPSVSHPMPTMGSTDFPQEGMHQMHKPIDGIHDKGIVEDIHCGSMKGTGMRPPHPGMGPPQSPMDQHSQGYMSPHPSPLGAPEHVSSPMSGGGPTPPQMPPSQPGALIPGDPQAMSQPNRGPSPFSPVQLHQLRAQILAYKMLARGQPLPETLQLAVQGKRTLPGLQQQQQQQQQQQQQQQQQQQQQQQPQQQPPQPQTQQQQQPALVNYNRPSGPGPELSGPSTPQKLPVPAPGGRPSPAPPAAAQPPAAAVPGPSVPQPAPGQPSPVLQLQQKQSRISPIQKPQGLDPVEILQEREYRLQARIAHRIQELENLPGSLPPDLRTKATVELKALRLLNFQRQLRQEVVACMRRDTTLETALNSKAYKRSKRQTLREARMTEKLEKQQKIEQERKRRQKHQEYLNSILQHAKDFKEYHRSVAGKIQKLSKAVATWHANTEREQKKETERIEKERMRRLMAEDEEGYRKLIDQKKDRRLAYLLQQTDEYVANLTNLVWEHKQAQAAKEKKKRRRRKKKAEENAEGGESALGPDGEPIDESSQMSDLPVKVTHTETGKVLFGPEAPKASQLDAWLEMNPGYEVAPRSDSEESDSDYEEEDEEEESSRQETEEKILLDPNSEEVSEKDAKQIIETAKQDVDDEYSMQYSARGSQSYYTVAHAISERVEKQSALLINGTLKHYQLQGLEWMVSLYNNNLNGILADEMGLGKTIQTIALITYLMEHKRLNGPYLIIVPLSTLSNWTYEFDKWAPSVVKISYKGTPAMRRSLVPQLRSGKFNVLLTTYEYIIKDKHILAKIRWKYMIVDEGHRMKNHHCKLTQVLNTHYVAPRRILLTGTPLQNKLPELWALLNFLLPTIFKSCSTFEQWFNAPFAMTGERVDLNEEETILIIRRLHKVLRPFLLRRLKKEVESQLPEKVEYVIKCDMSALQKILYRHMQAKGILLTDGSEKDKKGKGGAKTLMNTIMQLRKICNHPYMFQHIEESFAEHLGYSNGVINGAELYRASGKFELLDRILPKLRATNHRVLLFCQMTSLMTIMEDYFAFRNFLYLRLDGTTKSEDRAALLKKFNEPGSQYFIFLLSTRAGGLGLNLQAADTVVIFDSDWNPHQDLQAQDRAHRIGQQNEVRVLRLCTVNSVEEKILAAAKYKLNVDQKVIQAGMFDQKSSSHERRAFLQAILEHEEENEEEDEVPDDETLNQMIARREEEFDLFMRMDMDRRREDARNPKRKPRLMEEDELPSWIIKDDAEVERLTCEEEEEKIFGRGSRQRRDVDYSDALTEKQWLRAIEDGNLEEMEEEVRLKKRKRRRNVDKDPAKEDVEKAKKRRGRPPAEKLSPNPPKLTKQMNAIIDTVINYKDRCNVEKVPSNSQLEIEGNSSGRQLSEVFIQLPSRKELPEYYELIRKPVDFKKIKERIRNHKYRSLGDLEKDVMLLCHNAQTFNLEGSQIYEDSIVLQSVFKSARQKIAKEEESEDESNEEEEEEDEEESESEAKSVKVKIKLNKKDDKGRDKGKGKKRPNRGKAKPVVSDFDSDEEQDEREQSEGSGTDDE
ASSAY_METHOD_TEXT: SMARCA2 Western blot degradation in MV4-11 cells
Type: cell-based
Set-up: SMARCA2/SMARCA4 protein degradation selectivity in MV4-11 cells; endogenous in cells; host or cells: MV4-11
CONDITION_LABEL: MV4-11, MV4-11 cells, 24 h; read-out: SMARCA2 MSD MV411 degradation 24 h: average Dmax %
MEASUREMENT_NAME: Dmax

# annotated cases, reported Dmax shown
COMPOUND: C#Cc1ccc(CNC(=O)[C@@H]2C[C@@H](O)CN2C(=O)[C@@H](NC(=O)[C@H]2CCC3(CC2)C[C@H](N2CCC(c4cnc(N5CCN6c7cc(-c8cccc(Cl)c8O)nnc7NC[C@H]6C5)nc4)CC2)C3)C(C)(C)C)cc1 (single isomer, unassigned)
Dmax: 50 to 70%
--
COMPOUND: C#Cc1ccc([C@H](C)NC(=O)[C@@H]2C[C@@H](O)CN2C(=O)[C@@H](NC(=O)N2CC3(CC(N4CCC(N5CCC(N6CCc7[nH]c8nnc(-c9ccccc9O)cc8c7[C@H]6C)CC5)CC4)C3)C2)C(C)(C)C)cc1
Dmax: 70 to 90%
--
COMPOUND: C#Cc1ccc(CNC(=O)[C@@H]2C[C@@H](O)CN2C(=O)[C@@H](NC(=O)[C@H]2CC3(C2)C[C@H](N2CCC(N4CCC(N5CCN6c7cc(-c8ccccc8O)nnc7NC[C@H]6C5)CC4)CC2)C3)C(C)(C)C)c(OC)c1 (single isomer, unassigned)
Dmax: > 90%

Let us examine a further case.
Input line: # input compound: C#Cc1ccc(CNC(=O)[C@@H]2C[C@@H](O)CN2C(=O)[C@H](NC(=O)N2CC3(CC(N4CCC(c5cnc(N6CCc7[nH]c8nnc(-c9ccccc9O)cc8c7[C@H]6C)nc5)CC4)C3)C2)C(C)(C)CCN2CCOCC2)cc1 (single isomer, unassigned) ; wanted: its Dmax
Output line: 70 to 90%
